system_name: recombinant PRL-1 (Homo sapiens)
Construct: 6xHis (N, cleaved yes); made in house; host or cells: E. coli One Shot BL21 Star
Sequence (Q93096 1-173): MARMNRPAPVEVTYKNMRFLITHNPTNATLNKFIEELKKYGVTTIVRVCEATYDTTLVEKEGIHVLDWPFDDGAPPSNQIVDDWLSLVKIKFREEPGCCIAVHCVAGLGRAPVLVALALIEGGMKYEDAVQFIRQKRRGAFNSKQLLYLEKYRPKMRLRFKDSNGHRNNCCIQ
assay_protocol: In vitro phosphatase assay (DiFMUP hydrolysis), PRL-1; further: test concentration or dose not given here
Assay type: biochemical
reported_conditions: FDA-approved drug screen; compared to DMSO
Quick list: % Phosphatase Activity (compared to DMSO) PRL-1 per entry.
result_type: % Phosphatase Activity (compared to DMSO) PRL-1 (%)

[[record]]
compound = "CNCC(=O)c1ccc(O)c(O)c1.Cl [Adrenalone HCl]"
display_unit = "%"
recorded_value = 91

[[record]]
compound = "Nc1nc(F)nc2c1ncn2[C@@H]1O[C@H](COP(=O)(O)O)[C@@H](O)[C@@H]1O [Fludarabine Phosphate]"
display_unit = "%"
recorded_value = 97

[[record]]
compound = "CCCc1cc(C(N)=S)ccn1 [Protionamide]"
display_unit = "%"
recorded_value = 100

[[record]]
compound = "CC(=O)Nc1nnc(S(N)(=O)=O)s1 [Acetazolamide]"
display_unit = "%"
recorded_value = 91

[[record]]
compound = "COCCOC(=O)C1=C(C)NC(C)=C(C(=O)OC(C)C)C1c1cccc([N+](=O)[O-])c1 (centres unmarked) [Nimodipine]"
display_unit = "%"
recorded_value = 76

